Assay: Tissue distribution after single oral administration in rats
Assay type: in vivo, rat
Details: rat; spleen, 100 mg/kg PO, male Wistar rats, Estimated Value
assayEndpoint: AUC(0-inf) (ng·h/mL)
Please respond with the number in ng·h/mL and leave the unit unwritten.

Request the reported AUC(0-inf) associated with "COc1cc(Nc2ncnc(Nc3cc4c(cn3)NC(=O)C(C)(C)O4)n2)cc(OC)c1OC"
12200

----------
Test: Tissue distribution after single oral administration in rats
Assay type: in vivo, rat
Details: rat; prostate, 100 mg/kg PO, male Wistar rats, Estimated Value
assayEndpoint: AUC(0-inf) (ng·h/mL)
Please respond with the number in ng·h/mL and leave the unit unwritten.

Request the reported AUC(0-inf) associated with "COc1cc(Nc2ncnc(Nc3cc4c(cn3)NC(=O)C(C)(C)O4)n2)cc(OC)c1OC"
8080

----------
Molecular target: PDGFRa (Homo sapiens)
Construct: purchased Reaction Biology Corporation (Malvern, PA, USA)
Sequence (P16234 24-1089): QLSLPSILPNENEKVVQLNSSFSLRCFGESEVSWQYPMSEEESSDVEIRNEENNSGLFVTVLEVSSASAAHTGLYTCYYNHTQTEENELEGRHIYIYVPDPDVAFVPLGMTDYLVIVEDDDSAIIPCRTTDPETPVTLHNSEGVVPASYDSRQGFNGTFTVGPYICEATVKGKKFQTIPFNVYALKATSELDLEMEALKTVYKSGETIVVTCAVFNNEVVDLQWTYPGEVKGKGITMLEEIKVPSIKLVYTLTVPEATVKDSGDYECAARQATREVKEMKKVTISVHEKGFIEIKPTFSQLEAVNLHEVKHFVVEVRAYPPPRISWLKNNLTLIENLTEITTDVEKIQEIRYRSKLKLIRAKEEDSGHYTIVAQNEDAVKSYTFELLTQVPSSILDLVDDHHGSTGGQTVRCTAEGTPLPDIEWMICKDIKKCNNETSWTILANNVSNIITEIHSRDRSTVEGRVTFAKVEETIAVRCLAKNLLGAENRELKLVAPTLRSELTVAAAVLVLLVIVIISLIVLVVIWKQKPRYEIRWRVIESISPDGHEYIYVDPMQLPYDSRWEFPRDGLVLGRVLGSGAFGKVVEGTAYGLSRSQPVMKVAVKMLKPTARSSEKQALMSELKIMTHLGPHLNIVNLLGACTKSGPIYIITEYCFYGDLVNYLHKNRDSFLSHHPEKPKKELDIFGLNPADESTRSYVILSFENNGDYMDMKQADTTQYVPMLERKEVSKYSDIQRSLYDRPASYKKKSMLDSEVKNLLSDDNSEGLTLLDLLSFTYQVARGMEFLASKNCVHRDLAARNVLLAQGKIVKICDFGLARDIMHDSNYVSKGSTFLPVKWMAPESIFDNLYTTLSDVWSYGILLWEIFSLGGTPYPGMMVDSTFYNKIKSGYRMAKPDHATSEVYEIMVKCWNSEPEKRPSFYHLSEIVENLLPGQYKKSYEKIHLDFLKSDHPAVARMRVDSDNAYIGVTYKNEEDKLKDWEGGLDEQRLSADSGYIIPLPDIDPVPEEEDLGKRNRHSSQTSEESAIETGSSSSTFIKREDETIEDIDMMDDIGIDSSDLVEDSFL
Experiment: Kinase selectivity profile assay
Type: biochemical
Conditions: 10-dose mode, threefold serial dilution from 10 μM
assayEndpoint: pIC50
In plain terms, pIC50 is the concentration in mol/L turned into minus its base-10 logarithm.

Request the reported pIC50 associated with "COc1cc(Nc2ncnc(Nc3cc4c(cn3)NC(=O)C(C)(C)O4)n2)cc(OC)c1OC"
7.44

----------
Test: Pharmacokinetics after single oral administration to rats
Format: in vivo, rat
Conditions: male, Wistar, rat, plasma, oral, 100 mg/kg, Table S6, 100 mg/kg PO, male Wistar rats, 8 h, mean of Rat#1-6
assayEndpoint: concentration at 8 h (ng/mL)
Please respond with the number in ng/mL and leave the unit unwritten.

Request the reported concentration at 8 h associated with COc1cc(Nc2ncnc(Nc3cc4c(cn3)NC(=O)C(C)(C)O4)n2)cc(OC)c1OC [MT-SYK-03]
57.5

----------
Assay: Pharmacokinetics after single oral administration to rats
Assay type: in vivo, rat
Settings: male, Wistar, rat, plasma, po, 200 mg/kg, rats, single oral 200 mg/kg; read-out: Tmax
assayEndpoint: Tmax (h)
Please respond with the number in h and leave the unit unwritten.

Request the reported Tmax associated with COc1cc(Nc2ncnc(Nc3cc4c(cn3)NC(=O)C(C)(C)O4)n2)cc(OC)c1OC [MT-SYK-03]
1.33

----------
Molecular target: BMX/ETK (Homo sapiens, UniProt P51813)
Sequence (P51813 whole entry): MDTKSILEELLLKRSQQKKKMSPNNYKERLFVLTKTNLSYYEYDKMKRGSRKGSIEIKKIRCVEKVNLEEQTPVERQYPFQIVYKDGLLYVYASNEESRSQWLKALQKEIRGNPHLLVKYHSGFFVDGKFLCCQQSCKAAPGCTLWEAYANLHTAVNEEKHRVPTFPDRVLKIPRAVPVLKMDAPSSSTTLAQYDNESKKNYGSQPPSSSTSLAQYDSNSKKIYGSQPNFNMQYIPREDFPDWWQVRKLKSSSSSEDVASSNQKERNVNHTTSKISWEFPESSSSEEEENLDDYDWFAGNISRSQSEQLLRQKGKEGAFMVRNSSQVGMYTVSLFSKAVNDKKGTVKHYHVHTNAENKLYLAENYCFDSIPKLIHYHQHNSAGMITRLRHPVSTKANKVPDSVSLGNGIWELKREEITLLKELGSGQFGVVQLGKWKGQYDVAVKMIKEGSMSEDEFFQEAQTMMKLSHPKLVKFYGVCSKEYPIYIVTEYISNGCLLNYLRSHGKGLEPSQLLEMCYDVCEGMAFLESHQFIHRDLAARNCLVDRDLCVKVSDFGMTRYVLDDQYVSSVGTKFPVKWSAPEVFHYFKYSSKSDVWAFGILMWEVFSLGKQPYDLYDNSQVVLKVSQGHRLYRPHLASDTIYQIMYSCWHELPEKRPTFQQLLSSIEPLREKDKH
Assay: Kinase selectivity profile assay
Conditions: 10-dose mode, threefold serial dilution from 10 μM
assayEndpoint: IC50 (nM)
Please respond with the number in nM and leave the unit unwritten.

Request the reported IC50 associated with COc1cc(Nc2ncnc(Nc3cc4c(cn3)NC(=O)C(C)(C)O4)n2)cc(OC)c1OC [MT-SYK-03]
199

----------
Assay: Pharmacokinetics after single oral administration to rats
Assay type: in vivo, rat
Settings: male, Wistar, rat, plasma, oral, 100 mg/kg, Table S7, 100 mg/kg PO, male Wistar rats, 1 h, individual Rat#7-12; read-out: Plasma concentration
assayEndpoint: concentration at 1 h (ng/mL)
Please respond with the number in ng/mL and leave the unit unwritten.

Request the reported concentration at 1 h associated with "COc1cc(Nc2ncnc(Nc3cc4c(cn3)NC(=O)C(C)(C)O4)n2)cc(OC)c1OC"
830

----------
Assay: Pharmacokinetics after single oral administration to rats
Format: in vivo, rat
Details: male, Wistar, rat, plasma, po, 200 mg/kg, Table S8, 200 mg/kg PO, male Wistar rats, plasma, mean of Rat#13-18; read-out: Terminal t1/2, Mean (converted)
assayEndpoint: half-life (h)
Please respond with the number in h and leave the unit unwritten.

Request the reported half-life associated with COc1cc(Nc2ncnc(Nc3cc4c(cn3)NC(=O)C(C)(C)O4)n2)cc(OC)c1OC [MT-SYK-03]
5.08

----------
Test: Tissue distribution after single oral administration in rats
Assay type: in vivo, rat
Settings: male, Wistar, rat, bone, po, 100 mg/kg, bone, 100 mg/kg PO, male Wistar rats, 24 h, mean; read-out: Bone concentration, Mean
Experimental: Experiments were performed at ChemPartner, Shanghai, China and approved by Institutional Ethics Committee (IEC) of ChemPartner. Male Wistar 10–12 weeks old rats with body weights of 185–220 g and male New Zealand rabbits with body weights of 2.0–2.3 kg were purchased from Shanghai SLAC Laboratory Animal Co., Ltd. MT-SYK-03 was administered to the three groups of rats (six rats per group) via oral gavage at 10 mL/kg concentration, and in rabbits 5 mL/kg concentration. […]
assayEndpoint: concentration at 24 h (ng/mL)
Please respond with the number in ng/mL and leave the unit unwritten.

Request the reported concentration at 24 h associated with "COc1cc(Nc2ncnc(Nc3cc4c(cn3)NC(=O)C(C)(C)O4)n2)cc(OC)c1OC"
14.2

----------
Experiment: Tissue distribution after single oral administration in rats
Assay type: in vivo, rat
Conditions: rat; muscle, 100 mg/kg PO, male Wistar rats, Estimated Value
assayEndpoint: Tmax (h)
Please respond with the number in h and leave the unit unwritten.

Request the reported Tmax associated with "COc1cc(Nc2ncnc(Nc3cc4c(cn3)NC(=O)C(C)(C)O4)n2)cc(OC)c1OC"
2

----------
Test: Pharmacokinetics after single oral administration to rats
Assay type: in vivo, rat
Conditions: male, Wistar, rat, plasma, po, 200 mg/kg, Table S8, 200 mg/kg PO, male Wistar rats, plasma, mean of Rat#13-18; read-out: AUCINF, Mean
Procedure: Experiments were performed at ChemPartner, Shanghai, China and approved by Institutional Ethics Committee (IEC) of ChemPartner. Male Wistar 10–12 weeks old rats with body weights of 185–220 g and male New Zealand rabbits with body weights of 2.0–2.3 kg were purchased from Shanghai SLAC Laboratory Animal Co., Ltd. MT-SYK-03 was administered to the three groups of rats (six rats per group) via oral gavage at 10 mL/kg concentration, and in rabbits 5 mL/kg concentration. […]
assayEndpoint: AUC(0-inf)
Your reply should be a number followed by the unit it is expressed in.

Request the reported AUC(0-inf) associated with COc1cc(Nc2ncnc(Nc3cc4c(cn3)NC(=O)C(C)(C)O4)n2)cc(OC)c1OC [MT-SYK-03]
7320 ng·h/mL

----------
Test: Pharmacokinetics after single oral administration to rats
Format: in vivo, rat
Settings: male, Wistar, rat, plasma, po, 100 mg/kg, Table S7, 100 mg/kg PO, male Wistar rats, plasma, individual Rat#7-12; read-out: AUCINF
assayEndpoint: AUC(0-inf) (ng·h/mL)
Please respond with the number in ng·h/mL and leave the unit unwritten.

Request the reported AUC(0-inf) associated with "COc1cc(Nc2ncnc(Nc3cc4c(cn3)NC(=O)C(C)(C)O4)n2)cc(OC)c1OC"
4250

----------
Assay: Pharmacokinetics after single oral administration to rats
Assay type: in vivo, rat
Conditions: male, Wistar, rat, plasma, po, 100 mg/kg, Table S7, 100 mg/kg PO, male Wistar rats, plasma, mean of Rat#7-12; read-out: AUClast, Mean
assayEndpoint: AUC(0-t) (ng·h/mL)
Please respond with the number in ng·h/mL and leave the unit unwritten.

Request the reported AUC(0-t) associated with "COc1cc(Nc2ncnc(Nc3cc4c(cn3)NC(=O)C(C)(C)O4)n2)cc(OC)c1OC"
4260

----------
Biological target: BLK (Homo sapiens, UniProt P51451)
Sequence (P51451 whole entry): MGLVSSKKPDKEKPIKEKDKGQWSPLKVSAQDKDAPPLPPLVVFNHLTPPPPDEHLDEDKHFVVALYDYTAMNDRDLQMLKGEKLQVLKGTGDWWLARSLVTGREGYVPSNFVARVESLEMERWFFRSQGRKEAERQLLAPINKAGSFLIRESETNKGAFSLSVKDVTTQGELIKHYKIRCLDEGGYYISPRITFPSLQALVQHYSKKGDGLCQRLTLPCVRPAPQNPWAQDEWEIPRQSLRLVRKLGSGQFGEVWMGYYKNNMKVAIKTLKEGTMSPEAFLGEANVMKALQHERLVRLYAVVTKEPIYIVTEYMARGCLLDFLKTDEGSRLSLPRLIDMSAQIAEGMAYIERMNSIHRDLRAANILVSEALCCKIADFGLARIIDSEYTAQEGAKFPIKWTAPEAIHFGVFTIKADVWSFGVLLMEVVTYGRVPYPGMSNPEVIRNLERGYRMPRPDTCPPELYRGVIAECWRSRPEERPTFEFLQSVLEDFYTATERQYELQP
assayEndpoint: pIC50
In plain terms, pIC50 is the concentration in mol/L turned into minus its base-10 logarithm.

Request the reported pIC50 associated with COc1cc(Nc2ncnc(Nc3cc4c(cn3)NC(=O)C(C)(C)O4)n2)cc(OC)c1OC [MT-SYK-03]
8.02

----------
Molecular target: UniProtKB P07948
Sequence (P07948 1-491 isoform P07948-2): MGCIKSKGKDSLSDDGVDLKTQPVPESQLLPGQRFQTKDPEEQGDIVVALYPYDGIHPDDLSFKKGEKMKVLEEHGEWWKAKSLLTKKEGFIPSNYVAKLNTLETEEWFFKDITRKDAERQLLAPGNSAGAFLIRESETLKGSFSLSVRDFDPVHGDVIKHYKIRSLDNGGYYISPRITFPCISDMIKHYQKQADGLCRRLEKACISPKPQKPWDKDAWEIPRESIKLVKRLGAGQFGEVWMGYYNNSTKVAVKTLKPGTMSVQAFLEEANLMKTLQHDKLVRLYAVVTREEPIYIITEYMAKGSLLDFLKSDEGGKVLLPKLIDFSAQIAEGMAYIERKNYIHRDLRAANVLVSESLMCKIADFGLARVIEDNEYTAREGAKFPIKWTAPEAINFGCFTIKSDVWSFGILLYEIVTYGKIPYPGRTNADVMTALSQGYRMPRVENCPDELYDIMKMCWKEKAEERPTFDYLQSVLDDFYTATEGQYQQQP
assayEndpoint: IC50 (nM)
Please respond with the number in nM and leave the unit unwritten.

# get_value(readout= IC50, system= UniProtKB P07948) for COc1cc(Nc2ncnc(Nc3cc4c(cn3)NC(=O)C(C)(C)O4)n2)cc(OC)c1OC [MT-SYK-03]
14.2

----------
Experiment: Tissue distribution after single oral administration in rats
Assay type: in vivo, rat
Conditions: rat; spleen, 100 mg/kg PO, male Wistar rats, Estimated Value; read-out: AUC24/AUC24 (plasma)
assayEndpoint: Kp
Output: the number by itself.

Request the reported Kp associated with "COc1cc(Nc2ncnc(Nc3cc4c(cn3)NC(=O)C(C)(C)O4)n2)cc(OC)c1OC"
3.1

----------
Assay: Tissue distribution after single oral administration in rats
Assay type: in vivo, rat
Conditions: rat; spleen, 100 mg/kg PO, male Wistar rats, Estimated Value; read-out: AUC24
assayEndpoint: AUC (ng·h/mL)
Please respond with the number in ng·h/mL and leave the unit unwritten.

Request the reported AUC associated with "COc1cc(Nc2ncnc(Nc3cc4c(cn3)NC(=O)C(C)(C)O4)n2)cc(OC)c1OC"
12000

----------
Assay: Pharmacokinetics after single oral administration to rats
Type: in vivo, rat
Conditions: male, Wistar, rat, plasma; rats, single oral 100 mg/kg; read-out: AUC48
assayEndpoint: AUC
Your reply should be a number followed by the unit it is expressed in.

Request the reported AUC associated with "COc1cc(Nc2ncnc(Nc3cc4c(cn3)NC(=O)C(C)(C)O4)n2)cc(OC)c1OC"
4260 ng·h/mL

Source of measurements: paper PMC8632988
